B1: Histidine--tRNA ligase, cytoplasmic, residues 8 to 45; numbered along this chain, P12081 (parent)
chain: EELVKLQGERVRGLKQQKASAELIEEEVAKLLKLKAQL

Variants of: B1
Test: abundance fitness (aPCA) (normalised: wild type 0, dead -1); higher = more abundant; growth selection in yeast, the domain comes from the species named
Settings: Homo sapiens
abundance fitness vs -0.06: at or above is 1, below is -1.

• EELVKLQGERVRPLKQQKASAELIEEEVAKLLKLKAQL = -1
• EELVKLQGERVRGLKQQKASAELFEEEVAKLLKLKAQL = 1
• EENVKLQGERVRGLKQQKASAELIEEEVAKLLKLKAQL = -1
• EELVKLQGERVRGLKQQKASAELIEEEVAKLLPLKAQL = 1
• EELVKLQGERVRGLKQQKASAELIEEEVHKLLKLKAQL = -1
• EELHKLQGERVRGLKQQKASAELIEEEVAKLLKLKAQL = -1
• EELVKLQGERVRGLKQQKASAELIEEEVAKTLKLKAQL = 1
• EELVKLQGHRVRGLKQQKASAELIEEEVAKLLKLKAQL = -1
• EELVKLQGERVRGLKQQKASAELIEEEVAKLLKPKAQL = 1
• EELVKLQGERVRGLKQQKASAPLIEEEVAKLLKLKAQL = 1
• EELVKLQGERVRGLKQQKASEELIEEEVAKLLKLKAQL = 1

FYI, the data here is from the Human Domainome abundance scans (Beltran et al. 2025).
